System: CP237
Experiment: qHTS profiling for inhibitors of Plasmodium falciparum proliferation (AID 504749); further: nearly all actives have a fitted effect of over 60% in size
Settings: P. falciparum in erythrocytes, SYBR Green DNA, 72 h; series mostly up to 28.7 µM
Results filed as inconclusive are left out. Active and inactive are the calls of the source. The call rests on the fitted dose curve; in most records, active means well fitted inhibition curve with a large enough effect; inconclusive means small, poorly fitted or top-dose-only effect; inactive means flat fitted curve, though single readings scatter.
Entry note: the call must match one of active, inactive

Worked examples, 5 compounds total:
>>> answer_label("O=P1(NCCCl)OCCCN1CCCl (centres undefined)")
"inactive"
>>> answer_label("NP(N)(=O)NC(=O)c1ccc(F)cc1")
"inactive"
>>> answer_label("CC(C)(C)NCC(O)c1cc(Cl)c(N)c(Cl)c1 (centres undefined)")
"active"
>>> answer_label("NCC1(CC(=O)O)CCCCC1")
"inactive"
>>> answer_label("CCOC(=O)C1(c2ccccc2)CCN(CCC(C#N)(c2ccccc2)c2ccccc2)CC1")
"active"

## Input Look up the recorded call for CC[N+]1(C)CCCC(OC(=O)C(O)(c2ccccc2)c2ccccc2)C1 (centres undefined) in this test.
## Output inactive

## Input Look up the recorded call for Oc1ccccc1-c1ccccc1 in this test.
## Output inactive

## Input Look up the recorded call for CCCC(C)(COC(N)=O)COC(=O)NC(C)C (centres undefined) in this test.
## Output inactive

## Input Look up the recorded call for CCN(C(C)=O)c1cccc(-c2ccnc3c(C#N)cnn23)c1 in this test.
## Output inactive

## Input Look up the recorded call for NN=C(N)N in this test.
## Output inactive

## Input Look up the recorded call for CC[C@@H](CO)NC(=O)[C@@H]1C=C2c3cccc4[nH]cc(c34)C[C@H]2N(C)C1 in this test.
## Output inactive

## Input Look up the recorded call for CC[N+](CC)(CC)CC in this test.
## Output inactive

## Input Look up the recorded call for Clc1ccc(COC(Cn2ccnc2)c2ccc(Cl)cc2Cl)cc1 (centres undefined) in this test.
## Output active

## Input Look up the recorded call for Fc1ccc(C(OCCN2CCN(CCCc3ccccc3)CC2)c2ccc(F)cc2)cc1 in this test.
## Output active

====

Assay: Drug repurposing screens with cells derived from glioblastoma tumor samples (AID 1345199); further: on the % scale 0 is the no-effect control and ±100 the full control effect; nearly all actives have a fitted effect of over 40% in size
Details: GBM patient neurospheres viability, ATP luminescence, 48 h; at 46 µM (top of the series); tumour line A
Results filed as inconclusive are left out.
A collection of compounds and their measured activity, negative = cell killing
Provide the reading as a plain figure in %.

Below are worked cases with known answers.
>>> observed("COc1ccc(C(CN(C)C)C2(O)CCCCC2)cc1 (stereo unspecified)")
-20
>>> observed("Oc1cc(Cl)ccc1Oc1ccc(Cl)cc1Cl")
-27.9
>>> observed("C=CCN1CC[C@]23c4c5ccc(O)c4O[C@H]2C(=O)CC[C@@]3(O)[C@H]1C5")
15.9
>>> observed("CCOP(=S)(OCC)Oc1cc(C)nc(C(C)C)n1")
-24.4
>>> observed("CC1NCCOC1c1ccccc1 (stereo unspecified)")
-23.4

Please examine the following record next.
Form field activity, negative = cell killing, entry O=C(NC(O)C(Cl)(Cl)Cl)NC(O)C(Cl)(Cl)Cl (stereo unspecified) : -14.7

====

A collection of molecules and their measured efficacy
Conditions: Ebola virus entry assay, green fluorescence channel
Entries with a potency or affinity are not part of this list.
Provide the reading as a plain figure in %.

Form field efficacy, entry C[C@@H]1O[C@@H](O[C@H]2C[C@@H](O)[C@]3(CO)[C@H]4[C@H](O)C[C@]5(C)[C@@H](C6=CC(=O)OC6)CC[C@]5(O)[C@@H]4CC[C@]3(O)C2)[C@H](O)[C@H](O)[C@H]1O : -93.6

Form field efficacy, entry CCCCc1ncc(/C=C(\Cc2cccs2)C(=O)O)n1Cc1ccc(C(=O)O)cc1 : -11.8
